# target_of_assay: T1, B-cat-Halo (UniProt P35222 1-781, HaloTag NanoBRET 618 Ligand bound to the HaloTag in the assay)
# T1 sequence (looked up): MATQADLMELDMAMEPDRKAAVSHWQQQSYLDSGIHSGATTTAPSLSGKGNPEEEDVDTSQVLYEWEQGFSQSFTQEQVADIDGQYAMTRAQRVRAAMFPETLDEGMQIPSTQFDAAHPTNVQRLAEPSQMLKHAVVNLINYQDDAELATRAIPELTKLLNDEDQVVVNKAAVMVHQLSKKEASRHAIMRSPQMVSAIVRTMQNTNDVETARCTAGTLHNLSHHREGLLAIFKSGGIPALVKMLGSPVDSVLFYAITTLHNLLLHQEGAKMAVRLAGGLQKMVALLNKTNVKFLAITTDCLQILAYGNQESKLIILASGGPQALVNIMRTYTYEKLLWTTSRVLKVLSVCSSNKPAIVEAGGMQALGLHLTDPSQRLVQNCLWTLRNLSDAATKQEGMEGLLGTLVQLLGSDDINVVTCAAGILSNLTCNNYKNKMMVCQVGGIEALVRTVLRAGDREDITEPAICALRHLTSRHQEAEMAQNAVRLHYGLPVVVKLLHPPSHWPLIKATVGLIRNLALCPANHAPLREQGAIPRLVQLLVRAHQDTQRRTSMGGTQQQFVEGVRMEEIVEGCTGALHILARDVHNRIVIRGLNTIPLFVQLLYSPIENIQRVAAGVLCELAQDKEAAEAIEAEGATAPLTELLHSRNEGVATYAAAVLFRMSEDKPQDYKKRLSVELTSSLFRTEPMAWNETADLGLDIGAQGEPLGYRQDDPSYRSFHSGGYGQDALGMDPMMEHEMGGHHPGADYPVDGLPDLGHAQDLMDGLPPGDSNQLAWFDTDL
# method: cell-based or functional assay
Starred links: 1 amine or outer side, 2 acyl side, 3 side chain; linkers in the order of their positions; H or OH if unused. Positions of bridges follow the written chain, without caps; N, C: chain ends. Non-standard residues stand in square brackets, D forms with d. Primed or numbered codes have the meaning given here. *: point of attachment. PyrS2″ = (S)-3-amino-1-((pent-4-en-1-yloxy)carbonyl)pyrrolidine-3-carboxylic acid (stapling residue), C=CCCCOC(=O)N1CC[C@@](N[*:1])(C(=O)[*:2])C1; TfeGA = (S)-2-amino-3-((carboxymethyl)(2,2,2-trifluoroethyl)amino)propanoic acid, O=C([C@H](CN(CC(=O)[*:3])CC(F)(F)F)N[*:1])[*:2]; PyrS2 = (S)-3-amino-1-((pent-4-en-1-yloxy)carbonyl)pyrrolidine-3-carboxylic acid, C=CCCCOC(=O)N1CC[C@@](N[*:1])(C(=O)[*:2])C1; B5(3) = 2,2-bis(4-pentenyl)glycine (stitching residue), C=CCCCC(CCCC=C)(N[*:1])C(=O)[*:2]; B5(28) = 2,2-bis(4-pentenyl)glycine, C=CCCCC(CCCC=C)(N[*:1])C(=O)[*:2]; Phe(3-Cl) = N[C@@H](Cc1cccc(Cl)c1)C(=O)O; Phe(2-Br) = N[C@@H](Cc1ccccc1Br)C(=O)O; Phe(2-Cl) = N[C@@H](Cc1ccccc1Cl)C(=O)O; Bta = N[C@@H](Cc1csc2ccccc12)C(=O)O; αAllylPro = C=CC[C@@]1(C(=O)O)CCCN1; tBuAla = CC(C)(C)C[C@H](N)C(=O)O; 3Thi = N[C@@H](Cc1ccsc1)C(=O)O; AdamantC = not defined here; PyrS2(4) = not defined here; TfeGA″ = not defined here; Octanoyl = CCCCCCCC(=O)*; Butyryl = CCCC(=O)*
experimental_readout: NanoBRET Abs IC50 (µM)
Reply with just the number (in µM).

In the examples that follow, each entry is paired with its recorded NanoBRET Abs IC50.
binder: Ac-[αAllylPro]D[tBuAla][B5(3)]DDAAFN[PyrS2″][3Thi][Bta]QK(Butyryl)-NH2 (staple 1-4, 4-11) [I-917]
result_unit: µM
NanoBRET Abs IC50: 19.7
//
binder: Ac-[αAllylPro]D[tBuAla][B5(3)]DDAAFN[PyrS2(4)][3Thi][Bta]QK(1Napc)-NH2 (staple 1-4, 4-11; reading uncertain; also: printed as Ac-PL3-Asp-Npg-B5-Asp-Asp-Ala-Ala-Phe-Asn-PyrS2-3Thi-BztA-Gln-[1Napc]Lys-NH2) [I-916]
result_unit: µM
NanoBRET Abs IC50: 13.6
//
binder: Ac-[αAllylPro]D[tBuAla][B5(3)]D[TfeGA]AAFF[PyrS2″][Phe(2-Cl)][Bta]Q-NH2 (staple 1-4, 4-11) [I-923]
result_unit: µM
NanoBRET Abs IC50: 6
//
binder: Ac-[αAllylPro]D[tBuAla][B5(3)]D[TfeGA]AAFN[PyrS2″][Phe(3-Cl)][Bta]Q-NH2 (staple 1-4, 4-11; not fully specified) [I-926]
result_unit: µM
NanoBRET Abs IC50: 29.9
//
binder: Ac-[αAllylPro]D[tBuAla][B5(3)]D[TfeGA]AAFN[PyrS2″][Phe(2-Br)][Bta]Q-NH2 (staple 1-4, 4-11) [I-924]
result_unit: µM
NanoBRET Abs IC50: 3.3
//
binder: Ac-[αAllylPro]D[tBuAla][B5(3)]DDAAFN[PyrS2″][3Thi][Bta]QK(Octanoyl)-NH2 (staple 1-4, 4-11; not fully specified; printed as Ac-PL3-Asp-Npg-B5-Asp-Asp-Ala-Ala-Phe-Asn-PyrS2-3Thi-BztA-Gln-[Oct]Lys-NH2) [I-918]
result_unit: µM
NanoBRET Abs IC50: 11.1

In: Return reported NanoBRET Abs IC50; argument: Ac-[αAllylPro]D[tBuAla][B5(28)]D[TfeGA″]AAFT[PyrS2][Phe(2-Cl)][Bta]Q-NH2 (staple 1-4, 4-11; reading uncertain) [I-922]
Out: 2.7

In: Could you do the same for Ac-[αAllylPro]D[tBuAla][B5(3)]DDAAFN[PyrS2(4)][3Thi][Bta]QK(AdamantC)-NH2 (staple 1-4, 4-11; reading uncertain; also: printed as Ac-PL3-Asp-Npg-B5-Asp-Asp-Ala-Ala-Phe-Asn-PyrS2-3Thi-BztA-Gln-[AdamantC]Lys-NH2) [I-919] , please?
Out: 15.2

In: Item: Ac-[αAllylPro]D[tBuAla][B5(3)]D[TfeGA]AAFN[PyrS2″][Phe(3-Cl)][Bta]Q-NH2 (staple 1-4, 4-11; not fully specified) [I-925]
Out: 20
